Catalogue of compounds with associated GI50
- System: HOP-18
- TEST NAME: NCI tumour cell line growth inhibition, 48 h
Active and inactive are the calls of the source. Cut-off read from the data, not from the text of the source: active = GI50 up to about 1.1 µM and inactive = higher. Where a SMILES comes first, the peptide text is derived from it. The star is where a group is joined. Boc = CC(C)(C)OC(=O)*

                                   compound  endpoint_name            reported
0  [N-]=[N+]=CC(=O)CCC(N)C(=O)O (stereo not drawn)           GI50  43.3 µM (inactive)

For HOP-18, provide GI50 of "C1CN(c2nnc(N3CCC3)nn2)C1" please.
> 100 µM (inactive)

For HOP-18, provide GI50 of CC(C)(C)OC(=O)NC(Cc1ccc(O)cc1)C(=O)N1CCCC1C(=O)O (stereo not drawn) (Boc-Tyr-Pro-OH; configuration not given here) please.
> 100 µM (inactive)

For HOP-18, provide GI50 of "O=C(NCC(O)CNC(=O)C(F)(F)F)C(F)(F)F" please.
> 100 µM (inactive)

For HOP-18, provide GI50 of "COc1ccc2ccc([Se]c3ccc4ccc(OC)cc4c3)cc2c1" please.
28.9 µM (inactive)

* * *

- Test system: K562
- TEST NAME: NCI tumour cell line growth inhibition, 48 h
The source made the active and inactive calls. Rule as the data show it: active = GI50 up to about 1.1 µM and inactive = higher.
ENDPOINT NAME: GI50

Take a look at these entries with their results.
In [3]: df
Out[3]:
                                   compound  endpoint_name             reported
0            O=C1C[C@@H]2[C@@H](CCC23CC3)N1           GI50  > 100 µM (inactive)
1  CCC(=O)n1c(=O)n(-c2ccc([N+](=O)[O-])cc2)c(=O)n1C(=O)CC           GI50  > 100 µM (inactive)

Recorded GI50 for Nc1ncnc2c1nnn2C1OC(CO)C(O)C1O (configuration not stated) , please?
1.61 µM (inactive)

Recorded GI50 for "O=S(=O)(O)CS(=O)(=O)OCCCl" , please?
> 100 µM (inactive)

Recorded GI50 for Cc1cc(Cl)ccc1N1C(=O)C(=O)C(c2nc3ccccc3s2)/C(=N\NC(=O)c2ccccc2O)C1=O (configuration not stated) , please?
> 100 µM (inactive)

Recorded GI50 for "Cc1cc(O)c2c3c(ccc2c1)C(=O)c1c(O)cccc1C3=O" , please?
18.6 µM (inactive)

Recorded GI50 for "CSC(=S)c1ccc(C(=S)SC)cc1" , please?
> 100 µM (inactive)

* * *

- Tested on: BT-549
- TEST NAME: NCI tumour cell line growth inhibition, 48 h
Active and inactive are the calls of the source. Cut-off read from the data, not from the text of the source: active = GI50 up to about 1.1 µM and inactive = higher.
Outcomes you can answer with include only these: active, inactive

What did the test return for "Cn1c2ccccc2c(=S)c2ccccc21" ?
inactive

What did the test return for "Nc1nc(Cl)c(Cl)c(NCC2(O)CCC2)n1" ?
inactive

What did the test return for "c1cc(C[S+]2CCCC2)oc1C[S+]1CCCC1" ?
inactive

What did the test return for "CCOC(=O)c1cc2c(OC(C)=O)ccc(OC(C)=O)c2s1" ?
inactive

What did the test return for "c1ccc2[nH]c3nc4ccccc4c-3cc2c1" ?
active

What did the test return for CC1CCC(C(=O)O)(C(Br)C(=O)O)CC1 (configuration not stated) ?
inactive

What did the test return for "CCOP(=O)(OCC)C(=C1C=C(C(C)(C)C)C(=O)C(C(C)(C)C)=C1)P(=O)(OCC)OCC" ?
inactive

What did the test return for "C(/C=N/N=C1NCCCCN1)=N\N=C1NCCCCN1" ?
inactive

What did the test return for "N#Cc1nc(CCCCCN2C(=O)c3ccccc3C2=O)oc1N" ?
inactive

What did the test return for "CC(C)(C)C(=O)O[C@H]1C=C[C@@H](O)[C@@H]2[C@H]1[C@@H]1C=C[C@H]2C1" ?
inactive

What did the test return for Cc1ccc(/C=C2\CN(C)CC3C2=NN(c2ccccc2)C3c2ccc(C)cc2)cc1 (configuration not stated) ?
inactive

What did the test return for "O=C(O)c1cccc(OCCO)c1" ?
inactive

What did the test return for "Cc1cc(Cl)ccc1C(=O)c1ccc2ccccc2c1C(=O)O" ?
inactive

What did the test return for "C=C1c2nc3ccccc3n2C=C(c2ccc(Cl)cc2)N1c1ccc(OCCN2CCOCC2)cc1" ?
inactive

What did the test return for "Cc1cccc(Cn2c3c(c4cc(O)ccc42)C(=O)c2ccccc2C3=O)c1" ?
inactive

What did the test return for "c1c[nH]c(CN2CCOCC2)n1" ?
inactive

What did the test return for "[O-][n+]1onc2c3nn(-c4ccccc4)nc3ccc21" ?
inactive

* * *

- Test system: SNB-19
- TEST NAME: NCI tumour cell line growth inhibition, 48 h
The source made the active and inactive calls. Rule as the data show it: active = GI50 up to about 1.1 µM and inactive = higher.
Catalogue of compounds with associated GI50

Take a look at these entries with their results.
In [3]: df
Out[3]:
                                   compound              reported
0  CCN(CC)CCCC(C)Nc1ccnc2cc(Cl)ccc12 (stereo unspecified) [CHLOROQUINE PHOSPHATE]  > 76.4 µM (inactive)
1  CC(=O)O[C@H]1CCC2[C@@H]3CCC4Nc5oncc5C[C@]4(C)C3CC[C@@]21C (stereo partly specified)    > 10 µM (inactive)

--- query ---
Recorded GI50 for NC1CC(=O)c2ccccc21 (stereo unspecified) , please?
> 100 µM (inactive)

* * *

- Test system: LOX IMVI
- TEST NAME: NCI tumour cell line growth inhibition, 48 h
Active and inactive are the calls of the source. Rule as the data show it: active = GI50 up to about 1.1 µM and inactive = higher.
Catalogue of molecules with associated GI50

Take a look at these entries with their results.
                                   molecule  endpoint_name             reported
0        Nc1nc(CC2(O)CCCCC2)cc(-c2ccccc2)n1           GI50   40.4 µM (inactive)
1  O=C(Cc1nc2ccccc2o1)C(=O)Nc1ccccc1C(F)(F)F           GI50  > 100 µM (inactive)
2  Cn1c(=O)c2c(nc3n(Cc4ccccc4)c(=O)c(NCCCBr)cn23)n(C)c1=O           GI50   99.1 µM (inactive)
3    CCCCn1c2ccccc2c2ccc3c(c21)C(=O)C=CC3=O           GI50  > 100 µM (inactive)
4  CC(=O)O[C@H]1CCC2[C@@H]3CCC4Nc5oncc5C[C@]4(C)C3CC[C@@]21C (stereo partly specified)           GI50   > 10 µM (inactive)
5     CCc1c(O)nc(Nc2nc3ccccc3[nH]2)[nH]c1=O           GI50  > 100 µM (inactive)
6  Clc1ccc(CCNC2(c3cc4ccccc4s3)CCCCC2)cc1Cl           GI50   18.5 µM (inactive)
7     O=c1cc(-c2ccc(O)cc2)n(C2CC2)c2ccccc12           GI50   4.67 µM (inactive)

Recorded GI50 for "COC(=O)Nc1nc2cc(Oc3ccc4nc(NC(=O)OC)[nH]c4c3)ccc2[nH]1" , please?
2.01 µM (inactive)

Recorded GI50 for "COc1ccc(/C(Cl)=C(\C=O)c2cc(OC)c(OC)c(OC)c2)cc1OC" , please?
19.7 µM (inactive)

Recorded GI50 for "O=C1C[C@@H]2[C@@H](CCC23CC3)N1" , please?
> 100 µM (inactive)

* * *

- Test system: OVCAR-4
- TEST NAME: NCI tumour cell line growth inhibition, 48 h
Calls of active or inactive are those of the source. No stated cut-off is given here; in the data, active = GI50 up to about 1.1 µM and inactive = higher.
Outcomes you can answer with include only these: active, inactive

Solved entries:
>>> print(df.to_string())
                                   molecule  assay_target       cat
0  O=C1CC(C(=O)O)Cc2c(Br)ccc(O)c21 (stereo unspecified)       OVCAR-4  inactive
1  CC1=CC(O)C(O)C2(C)C1CC1OC(=O)C(O)C3C(C)C(O)C4(O)OCC13C42 (stereo unspecified)       OVCAR-4  inactive
2  CC(=O)c1sc(-c2nc(C)c(C(=O)/C=C\c3ccc(/C=C\C(=O)c4sc(-c5nc(C)c(C(C)=O)s5)nc4C)cc3)s2)nc1C       OVCAR-4  inactive
3    Cc1ccc(SSc2ccc(C)cc2C(=O)O)c(C(=O)O)c1       OVCAR-4  inactive
4          O=C1Sc2ccc(Br)cc2C(=O)Sc2ccccc21       OVCAR-4  inactive
5  CC(C#N)c1cn(S(=O)(=O)c2ccccc2)c2ccccc12 (stereo unspecified)       OVCAR-4  inactive
6  CN1N=C(c2ccncc2)OC1c1ccc(Cl)c(Cl)c1 (stereo unspecified)       OVCAR-4  inactive
7  Oc1nc2c(c(-c3ccccc3Cl)n1)COC/C2=C\c1ccccc1Cl       OVCAR-4  inactive
8  CC1CC(C)CC(NC2=NCCO2)C1 (stereo unspecified)       OVCAR-4  inactive
9  CN1C(=O)N/C(=C\c2ccc(S(=O)(=O)NN)cc2)C1=O       OVCAR-4  inactive

What did the test return for Oc1cc(O)c2c(c1)OC(c1ccc(O)c(O)c1)C(OC1(c3cc(O)c(O)c(O)c3)Oc3cc(O)cc(O)c3C(O)C1O)C2 (stereo unspecified) ?
inactive

What did the test return for CC(C)(C)[Si](C)(C)OCC1OC(n2ccc(=O)[nH]c2=O)C(O[Si](C)(C)C(C)(C)C)[C@]12O[C@@H]2CO (stereo partly specified) ?
inactive

What did the test return for CCCC(=O)Nc1cc(/C=C/C(=O)N2CC(CCl)c3c2cc(O)c2[nH]cc(C)c32)n(C)c1 (stereo unspecified) ?
active

What did the test return for "CCCCOCOc1ccccc1P1(=O)COc2ccccc2OC1" ?
inactive

What did the test return for Cc1ccc(S(=O)(=O)NC(CCC(=O)NN)C(=O)NN)cc1 (stereo unspecified) ?
inactive

What did the test return for "CO/C(=N\N=C\c1ccc(Cl)cc1Cl)c1ccncc1" ?
inactive

What did the test return for CCOC(=O)C12C(C(=O)OC)=C(C)N(NC(=O)Nc3ccccc3)C1(N)N(NC(=O)Nc1ccccc1)C(C)=C2C(=O)OC (stereo unspecified) ?
inactive

What did the test return for "Cc1cccc(Cn2c3c(c4cc(O)ccc42)C(=O)c2ccccc2C3=O)c1" ?
inactive

What did the test return for "CC(C)(C)[Si](C)(C)OCCCC#CCO" ?
inactive

What did the test return for "O=C(O)CN1CCN2CCOCCOCCN(CC1)CCN(CC(=O)O)CC2" ?
inactive

What did the test return for "CN(C)/C=N/S(=O)(=O)c1nn2c(C=O)c(-c3ccc(Cl)cc3)nc2s1" ?
inactive
